Target: HIV-1 protease (Human immunodeficiency virus type 1 group M subtype B)
Construct: Purified HIV-1 protease was obtained as described above; made in house; host or cells: E. coli K12 L507/pHP10D (NRRL B-18560)
Test Summary: biochemical
Give IC50 for every item shown.
Reply numerically in nM, unit not repeated.

Find the recorded IC50 belonging to Cc1c(O)cccc1C(=O)N[C@@H](Cc1ccccc1)[C@H](O)CN1CCCC[C@H]1C(=O)NC(C)(C)C [Example 6] and report it.
1070

Item under review: Cc1c(O)cccc1C(=O)N[C@@H](Cc1ccccc1)[C@H](O)CN1CCC[C@H]1C(=O)NC(C)(C)C [Example 4] . Reported IC50?
3050
